- Tested on: 616215-338-R-J1-PDC tumor spheroids, viability;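 further: spheroids exposed to agents for 7 days before readout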
- protocol-summary: Anticancer human tumor 616215-338-R-J1-PDC patient-derived colon adenocarcinoma cell line growth inhibition [GQUAD]
- measurement-setup: curve of first compound; second compound 3.16 µM; spheroids with HUVEC and MSC
For each of the molecules below, state its IC50.

Prompt line: Quick check: IC50 of O=C(c1cc(Cc2n[nH]c(=O)c3ccccc23)ccc1F)N1CCN(C(=O)C2CC2)CC1 + Cc1[nH]c2ccc(F)cc2c1-c1nc2c3cccnc3c3ncccc3c2[nH]1 ?
Response line: > 10000 nM

Prompt line: Next record, please: CC1COCCN1c1cc(C2(S(C)(=N)=O)CC2)nc(-c2ccnc3[nH]ccc23)n1 (stereo not drawn) + Cc1cnc(CNC(=O)c2c(=O)c3ccc(N4CCCN(C)CC4)nc3n3c2sc2ccccc23)cn1
Response line: < 31.6 nM

Prompt line: Next record, please: CC(C)n1c(=O)n(C)c2cnc3cc(F)c(-c4ccc(OCCCN5CCCCC5)nc4)cc3c21 + Cc1cnc(CNC(=O)c2c(=O)c3ccc(N4CCCN(C)CC4)nc3n3c2sc2ccccc23)cn1
Response line: < 31.6 nM
